# tested.system: CDK2 (Homo sapiens, UniProt P24941)
# assay.summary: In vitro protein kinase inhibition assay (ELISA kit), CDK2
# experimental.setup: read-out: Inhibition (%) CDK2, 0.01 µM; individual Data 1-3
reported.metric: inhibition at 0.01 µM (%)
Quick reminder: number only, in %, skip the unit.

QUERY: Bench note: what inhibition at 0.01 µM did `COc1cccc(C(=O)/C=C/c2ccc(OCc3ccccc3)cc2)c1` show?
RESULT: 25.1

QUERY: Another compound to check: `O=C(/C=C/c1ccc(O)cc1)c1ccccc1`
RESULT: 19.1

QUERY: Could you do the same for `COc1ccc(C(=O)/C=C/c2ccc(OCc3ccccc3)c(OC)c2)cc1` , please?
RESULT: 6.58

QUERY: Field entry: O=C(/C=C/c1ccccc1)c1ccccc1 [Compound 4a, (E)-Chalcone]
RESULT: 11.8

---

# tested.system: EGFR (Homo sapiens)
# Sequence (P00533 25-1210): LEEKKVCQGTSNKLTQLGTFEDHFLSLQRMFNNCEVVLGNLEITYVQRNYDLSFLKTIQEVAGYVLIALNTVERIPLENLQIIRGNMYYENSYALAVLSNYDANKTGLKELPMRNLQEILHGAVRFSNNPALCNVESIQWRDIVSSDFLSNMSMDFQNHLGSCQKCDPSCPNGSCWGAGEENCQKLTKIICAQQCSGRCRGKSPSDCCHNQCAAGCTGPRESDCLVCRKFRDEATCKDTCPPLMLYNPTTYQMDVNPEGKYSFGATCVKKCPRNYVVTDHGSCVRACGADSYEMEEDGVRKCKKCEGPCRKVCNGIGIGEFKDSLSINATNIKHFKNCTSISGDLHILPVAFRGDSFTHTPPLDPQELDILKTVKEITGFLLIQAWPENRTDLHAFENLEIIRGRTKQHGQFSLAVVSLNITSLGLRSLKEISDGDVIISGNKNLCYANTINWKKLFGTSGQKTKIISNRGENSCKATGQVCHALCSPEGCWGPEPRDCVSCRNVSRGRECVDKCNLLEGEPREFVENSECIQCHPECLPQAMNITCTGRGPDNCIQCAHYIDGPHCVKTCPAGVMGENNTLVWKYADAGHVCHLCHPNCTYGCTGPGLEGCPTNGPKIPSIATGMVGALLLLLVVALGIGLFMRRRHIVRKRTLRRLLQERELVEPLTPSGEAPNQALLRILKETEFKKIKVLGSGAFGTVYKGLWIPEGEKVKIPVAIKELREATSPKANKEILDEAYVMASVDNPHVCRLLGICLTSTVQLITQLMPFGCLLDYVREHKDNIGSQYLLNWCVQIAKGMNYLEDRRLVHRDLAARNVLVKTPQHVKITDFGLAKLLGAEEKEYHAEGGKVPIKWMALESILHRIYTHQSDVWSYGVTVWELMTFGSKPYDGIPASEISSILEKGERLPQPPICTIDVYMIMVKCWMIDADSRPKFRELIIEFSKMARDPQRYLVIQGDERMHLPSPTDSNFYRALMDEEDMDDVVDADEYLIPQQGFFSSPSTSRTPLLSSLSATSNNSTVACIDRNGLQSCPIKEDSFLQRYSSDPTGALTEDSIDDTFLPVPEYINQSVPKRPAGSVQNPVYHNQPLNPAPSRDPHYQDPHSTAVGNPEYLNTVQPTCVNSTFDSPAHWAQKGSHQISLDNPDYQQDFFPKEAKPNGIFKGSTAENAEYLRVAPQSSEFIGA
reported.metric: pIC50
Keep in mind that pIC50 stands for -log10 of concentration in molar terms.

QUERY: Quick check: pIC50 of `COc1ccc(C(=O)/C=C/c2ccc(OCc3ccccc3)c(OC)c2)cc1` ?
RESULT: 6.17

QUERY: Ok, now O=C(/C=C/c1ccccc1)c1ccccc1 [Compound 4a, (E)-Chalcone]
RESULT: 6.44

QUERY: Next record, please: `COc1cccc(C(=O)/C=C/c2ccc(OCc3ccccc3)cc2)c1`
RESULT: 6.82

---

# tested.system: UniProt P24941
# assay.summary: In vitro protein kinase inhibition assay (ELISA kit), CDK2
# experimental.setup: read-out: Inhibition (%) CDK2, 0.1 µM; individual Data 1-3
reported.metric: inhibition at 0.1 µM (%)
API: value field is a number in %; no unit string.

QUERY: inhibition at 0.1 µM lookup needed for `O=C(/C=C/c1ccc(O)cc1)c1ccccc1` , thanks.
RESULT: 38.5

QUERY: Would you mind doing O=C(/C=C/c1ccccc1)c1ccccc1 [Compound 4a, (E)-Chalcone] as well?
RESULT: 27.7

QUERY: For `COc1ccc(C(=O)/C=C/c2ccc(OCc3ccccc3)c(OC)c2)cc1` then?
RESULT: 22.9

QUERY: Next up: `COc1cccc(C(=O)/C=C/c2ccc(OCc3ccccc3)cc2)c1`
RESULT: 41.9

---

I'd appreciate it if you could supply inhibition at 1 µM values for the items below.
# tested.system: VEGFR-2 (Homo sapiens, UniProt P35968)
# Sequence (P35968 20-1356): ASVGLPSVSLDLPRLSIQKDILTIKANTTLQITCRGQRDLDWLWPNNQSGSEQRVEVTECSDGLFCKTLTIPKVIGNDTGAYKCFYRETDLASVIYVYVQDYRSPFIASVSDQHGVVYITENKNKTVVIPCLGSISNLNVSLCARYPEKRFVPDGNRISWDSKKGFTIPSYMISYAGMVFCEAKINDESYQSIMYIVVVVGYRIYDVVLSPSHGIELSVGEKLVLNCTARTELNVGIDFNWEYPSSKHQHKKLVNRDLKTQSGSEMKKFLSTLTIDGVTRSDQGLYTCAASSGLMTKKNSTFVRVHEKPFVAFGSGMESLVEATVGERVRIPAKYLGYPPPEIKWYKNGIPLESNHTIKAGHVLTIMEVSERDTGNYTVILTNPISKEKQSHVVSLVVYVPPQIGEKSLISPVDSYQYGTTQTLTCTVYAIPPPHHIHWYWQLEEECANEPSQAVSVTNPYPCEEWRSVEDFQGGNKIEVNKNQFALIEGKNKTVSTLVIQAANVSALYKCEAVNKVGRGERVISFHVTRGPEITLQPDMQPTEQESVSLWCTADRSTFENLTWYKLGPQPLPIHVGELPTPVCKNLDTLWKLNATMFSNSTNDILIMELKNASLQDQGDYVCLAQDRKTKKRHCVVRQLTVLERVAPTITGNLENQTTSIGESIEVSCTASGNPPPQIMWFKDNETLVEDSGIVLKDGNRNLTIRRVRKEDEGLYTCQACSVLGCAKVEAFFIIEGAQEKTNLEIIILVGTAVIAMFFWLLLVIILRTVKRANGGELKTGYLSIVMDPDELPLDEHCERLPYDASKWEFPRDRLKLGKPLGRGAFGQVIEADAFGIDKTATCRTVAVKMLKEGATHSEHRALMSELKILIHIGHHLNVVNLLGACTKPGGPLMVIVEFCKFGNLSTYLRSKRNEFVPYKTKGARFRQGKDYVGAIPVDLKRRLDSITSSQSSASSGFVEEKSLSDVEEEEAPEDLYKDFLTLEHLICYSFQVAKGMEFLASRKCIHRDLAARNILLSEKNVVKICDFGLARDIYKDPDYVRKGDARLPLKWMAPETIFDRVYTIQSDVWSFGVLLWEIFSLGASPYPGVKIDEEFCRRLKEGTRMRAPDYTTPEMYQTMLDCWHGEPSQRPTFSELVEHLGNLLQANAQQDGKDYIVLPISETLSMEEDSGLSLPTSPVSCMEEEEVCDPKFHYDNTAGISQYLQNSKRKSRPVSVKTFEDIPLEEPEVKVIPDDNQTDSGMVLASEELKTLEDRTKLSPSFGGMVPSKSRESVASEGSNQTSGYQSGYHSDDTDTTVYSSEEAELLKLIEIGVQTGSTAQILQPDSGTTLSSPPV
# assay.summary: In vitro protein kinase inhibition assay (ELISA kit), VEGFR-2
# experimental.setup: read-out: Inhibition (%) VEGFR2, 1 µM; individual Data 1-3
Write it as a number; the unit % goes unstated.

QUERY: For the molecule O=C(/C=C/c1ccccc1)c1ccccc1 [Compound 4a, (E)-Chalcone] , what inhibition at 1 µM is on record?
RESULT: 43.5

QUERY: What do we get for `COc1cccc(C(=O)/C=C/c2ccc(OCc3ccccc3)cc2)c1` ?
RESULT: 66.8

QUERY: Input `O=C(/C=C/c1ccc(O)cc1)c1ccccc1`
RESULT: 73.8

QUERY: Follow-up item: `COc1ccc(C(=O)/C=C/c2ccc(OCc3ccccc3)c(OC)c2)cc1`
RESULT: 39

---

# tested.system: UniProtKB P35968
# assay.summary: In vitro protein kinase inhibition assay (ELISA kit), VEGFR-2
# experimental.setup: read-out: Inhibition (%) VEGFR2, 0.1 µM; individual Data 1-3
Exercise: state measured inhibition at 0.1 µM for each of the compounds provided.
Form entry: enter the amount, then its unit.

QUERY: Sample O=C(/C=C/c1ccccc1)c1ccccc1 [Compound 4a, (E)-Chalcone] — what was its inhibition at 0.1 µM?
RESULT: 21.6%

QUERY: Would you mind doing COc1cccc(C(=O)/C=C/c2ccc(OCc3ccccc3)cc2)c1 [Compound 4q] as well?
RESULT: 39%

QUERY: Would you mind doing O=C(/C=C/c1ccc(O)cc1)c1ccccc1 [Compound 4b] as well?
RESULT: 48.3%

QUERY: Again, but for COc1ccc(C(=O)/C=C/c2ccc(OCc3ccccc3)c(OC)c2)cc1 [Compound 4v]
RESULT: 18.1%

---

# tested.system: VEGFR-2 (Homo sapiens, UniProt P35968)
# assay.summary: In vitro protein kinase inhibition assay (ELISA kit), VEGFR-2
# experimental.setup: read-out: Inhibition (%) VEGFR2, 100 µM; individual Data 1-3
Field: inhibition at 100 µM. Provide a value for each of the molecules that follow.
Write the number in % without appending the unit.

QUERY: I'm curious: which inhibition at 100 µM was measured for O=C(/C=C/c1ccccc1)c1ccccc1 [Compound 4a, (E)-Chalcone] tested on VEGFR-2 (Homo sapiens, UniProt P35968)?
RESULT: 89.2

QUERY: What about `COc1cccc(C(=O)/C=C/c2ccc(OCc3ccccc3)cc2)c1` ?
RESULT: 95.7

QUERY: Would you kindly repeat that for `COc1ccc(C(=O)/C=C/c2ccc(OCc3ccccc3)c(OC)c2)cc1` ?
RESULT: 89.2

QUERY: Another: `O=C(/C=C/c1ccc(O)cc1)c1ccccc1`
RESULT: 96.1

---

What IC50 at 24 h was measured for each of the following?
# assay.summary: MTT cytotoxicity assay, normal cell line WI-38
# Type: cell-based, human
# experimental.setup: human, WI-38 cells (normal human lung fibroblasts), normal (non-cancer) cell line, 24 h treatment
Please reply with the bare figure in µM and do not write the unit itself.

QUERY: Returns the measured IC50 at 24 h for the input molecule. Input: `COc1ccc(C(=O)/C=C/c2ccc(OCc3ccccc3)cc2)cc1`
RESULT: 22.3

QUERY: // repeat for `COc1ccc(/C=C/C(=O)c2cccc(OC)c2)cc1` and report
RESULT: 16.2

QUERY: Also, `COc1cccc(C(=O)/C=C/c2cccc(OCc3ccccc3)c2)c1` please.
RESULT: 92.1

QUERY: # repeat for `COc1ccc(/C=C/C(=O)c2ccc(OC)cc2)cc1`
RESULT: 24.2

QUERY: Try `COc1ccc(C(=O)/C=C/c2ccccc2)cc1` next.
RESULT: 87.6

QUERY: Likewise for `O=C(/C=C/c1cccc(OCc2ccccc2)c1)c1ccccc1` ?
RESULT: 83.4

QUERY: And `CCOc1ccc(/C=C/C(=O)c2ccccc2)cc1` ?
RESULT: 64.7

QUERY: Now try `O=C(/C=C/c1ccccc1OCc1ccccc1)c1ccccc1` .
RESULT: 27.8

QUERY: Field entry: `COc1cccc(C(=O)/C=C/c2ccccc2)c1`
RESULT: 78.2

QUERY: Same again, this time with `COc1ccc(C(=O)/C=C/c2ccc(OCc3ccccc3)c(OC)c2)cc1`
RESULT: 75.2

QUERY: Entry to check: `O=C(/C=C/c1ccc(O)cc1)c1ccccc1`
RESULT: 54.6

QUERY: And `COc1ccc(C(=O)/C=C/c2ccc(Cl)cc2)cc1` ?
RESULT: 61.5

---

# tested.system: HER2 (Homo sapiens, UniProt P04626)
# Sequence (P04626 23-1255): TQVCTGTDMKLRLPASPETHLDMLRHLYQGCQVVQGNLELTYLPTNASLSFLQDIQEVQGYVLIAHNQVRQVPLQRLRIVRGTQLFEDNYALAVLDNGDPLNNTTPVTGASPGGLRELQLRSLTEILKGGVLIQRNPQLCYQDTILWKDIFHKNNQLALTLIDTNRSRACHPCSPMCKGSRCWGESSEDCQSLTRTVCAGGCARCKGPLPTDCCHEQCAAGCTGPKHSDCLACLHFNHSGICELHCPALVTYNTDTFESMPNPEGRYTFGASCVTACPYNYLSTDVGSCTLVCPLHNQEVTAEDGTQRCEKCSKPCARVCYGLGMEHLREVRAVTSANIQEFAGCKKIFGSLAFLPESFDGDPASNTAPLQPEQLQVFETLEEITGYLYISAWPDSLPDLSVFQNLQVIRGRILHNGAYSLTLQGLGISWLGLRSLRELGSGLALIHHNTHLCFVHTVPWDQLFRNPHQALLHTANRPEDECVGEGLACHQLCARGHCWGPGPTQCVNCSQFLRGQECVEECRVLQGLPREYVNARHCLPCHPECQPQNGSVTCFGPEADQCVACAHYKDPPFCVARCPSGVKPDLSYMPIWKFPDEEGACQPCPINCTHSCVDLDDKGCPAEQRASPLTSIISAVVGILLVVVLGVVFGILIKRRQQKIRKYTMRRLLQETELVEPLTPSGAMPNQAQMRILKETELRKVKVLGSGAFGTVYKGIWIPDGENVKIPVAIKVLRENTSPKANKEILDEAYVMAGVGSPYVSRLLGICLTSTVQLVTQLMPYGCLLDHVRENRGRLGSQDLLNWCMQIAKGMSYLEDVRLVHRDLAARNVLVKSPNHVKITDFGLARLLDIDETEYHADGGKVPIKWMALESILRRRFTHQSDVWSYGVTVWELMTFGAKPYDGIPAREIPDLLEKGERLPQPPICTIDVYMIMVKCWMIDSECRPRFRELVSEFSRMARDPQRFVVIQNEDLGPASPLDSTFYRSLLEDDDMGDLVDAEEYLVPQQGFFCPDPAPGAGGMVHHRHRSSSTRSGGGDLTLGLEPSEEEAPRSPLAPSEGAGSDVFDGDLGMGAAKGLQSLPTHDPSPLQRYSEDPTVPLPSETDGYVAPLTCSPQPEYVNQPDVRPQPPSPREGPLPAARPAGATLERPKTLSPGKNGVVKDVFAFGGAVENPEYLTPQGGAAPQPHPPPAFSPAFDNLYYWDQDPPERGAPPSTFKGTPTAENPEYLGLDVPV
# assay.summary: In vitro protein kinase inhibition assay (ELISA kit), HER2
# experimental.setup: read-out: Inhibition (%) Her2, 10 µM; individual Data 1-3
Please provide measured inhibition at 10 µM for the entries that follow.
Field format: number, assumed %, no unit text.

QUERY: I would be grateful if you could share the reported inhibition at 10 µM for O=C(/C=C/c1ccccc1)c1ccccc1 [Compound 4a, (E)-Chalcone] .
RESULT: 79.1

QUERY: Would you mind doing O=C(/C=C/c1ccc(O)cc1)c1ccccc1 [Compound 4b] as well?
RESULT: 81.6

QUERY: Now give it for COc1cccc(C(=O)/C=C/c2ccc(OCc3ccccc3)cc2)c1 [Compound 4q] too.
RESULT: 87.3

QUERY: Then what about the compound COc1ccc(C(=O)/C=C/c2ccc(OCc3ccccc3)c(OC)c2)cc1 [Compound 4v] ?
RESULT: 74.7

---

# Test system: MDA-MB-231
# assay.summary: MTT cytotoxicity assay, MDA-MB-231
# Type: cell-based
# experimental.setup: Homo sapiens, 24 h treatment, mean ± SD of triplicate
reported.metric: IC50 (µM)
Please give a number only; it is taken to be in µM.

QUERY: GET /values?readout=IC50&system=MDA-MB-231&item= `COc1cccc(C(=O)/C=C/c2cccc(OCc3ccccc3)c2)c1`
RESULT: 68.4

QUERY: Same read-out for `O=C(/C=C/c1ccc(O)cc1)c1ccccc1` ?
RESULT: 4.93

QUERY: Entry to check: `O=C(/C=C/c1ccccc1OCc1ccccc1)c1ccccc1`
RESULT: 59.2

QUERY: What about `COc1ccc(/C=C/C(=O)c2cccc(OC)c2)cc1` ?
RESULT: 91.7

QUERY: What about `COc1cccc(C(=O)/C=C/c2ccccc2)c1` ?
RESULT: 29.3

QUERY: Same read-out for `COc1ccc(C(=O)/C=C/c2ccc(Cl)cc2)cc1` ?
RESULT: 48.6

QUERY: What about `COc1ccc(/C=C/C(=O)c2ccc(OC)cc2)cc1` ?
RESULT: 73.5

QUERY: // next record `COc1ccc(C(=O)/C=C/c2cccc(OCc3ccccc3)c2)cc1`
RESULT: 51.8

QUERY: One more compound: `COc1cc(/C=C/C(=O)c2ccccc2)ccc1OCc1ccccc1`
RESULT: 64.1

QUERY: Then this compound: `COc1cccc(/C=C/C(=O)c2ccccc2)c1`
RESULT: 43.6
